B1: Twister Ribozyme (parent)
chain: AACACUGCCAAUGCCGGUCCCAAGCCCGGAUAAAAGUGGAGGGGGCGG

Variants of: B1
Assay: self-cleavage, relative activity (ratio to wild type); higher = more cleavage; co-transcriptional
readout_name: self-cleavage

>>> df
                              sequence_entry   readout_name  recorded_value
 0  AACACUGCCAAUGACGCUCCCAAGCCCGGAUAAAAGUGGAGGGGGCGG [C14A G17C]  self-cleavage            0.12
 1  AACACUGCCAAUCACGGUCCCAAGCCCGGAUAAAAGUGGAGGGGGCGG [G13C C14A]  self-cleavage           0.593
 2  AACACUGCCAAUGCCGGUCCCAGGCCCGGAUAAAAGUGGUGGGGGCGG [A23G A40U]  self-cleavage           0.125
 3  AACACUGCCAAUGCCGGUCUCAAGCCCGGAUAAAAGUGGGGGGGGCGG [C20U A40G]  self-cleavage           0.149
 4  AACACUGCAAAUGCCGGGCCCAAGCCCGGAUAAAAGUGGAGGGGGCGG [C9A U18G]  self-cleavage           0.159
 5  AACACUGCCAAUGCCGGUCCCAAGCACGGAUAAAAGUGGAGAGGGCGG [C26A G42A]  self-cleavage           0.132
 6  AACACUGCCAAUGCCGGUCCCAAGCCCAGAUAGAAGUGGAGGGGGCGG [G28A A33G]  self-cleavage           0.781
 7  AACACUACCAAUGCCGGUCCCAAGCCCGGAAAAAAGUGGAGGGGGCGG [G7A U31A]  self-cleavage           0.599
 8  AACACUGCCAAUCCCGGUCCCAAGCCCGCAUAAAAGUGGAGGGGGCGG [G13C G29C]  self-cleavage           0.477
 9  AACACUGCCACUGCCGGUCCCAAGCCCGGAUAAAAGUGGAGGGGCCGG [A11C G45C]  self-cleavage           0.581
10  AACACUGCCAAUGCCGGUCCCAAGCCCGGAUAAAAGUGGAGGGUCCGG [G44U G45C]  self-cleavage           0.609
11  AACACUGCCAAUGCCGGUCCCACGCCCGGAUAAAAGUGGAGGGGACGG [A23C G45A]  self-cleavage           0.118
12  AACACUGCCAAUGCCGGACCCAAGCCCGGAUAAAAGUGGAGUGGGCGG [U18A G42U]  self-cleavage           0.161
13  AACACUGCCAAUCCCGGUCCCAAGCCCGGAUAAAACUGGAGGGGGCGG [G13C G36C]  self-cleavage           0.122
14  AACACUGCCAAUGCCGGUCCCAAGCCCGCAUAAAAUUGGAGGGGGCGG [G29C G36U]  self-cleavage           0.106
15  AACACUGCCAAUGCCGGUCCCAAGCUCGUAUAAAAGUGGAGGGGGCGG [C26U G29U]  self-cleavage           0.204
16  AACACUGCCAAUGCCGGUCUCAAGCCCGGAUAAAAGUGGAGGGGUCGG [C20U G45U]  self-cleavage           0.802
17  AACACUGCCAAUGCCGGUCCCAAGCCCGCAUAAAAGUGGAGGGGGCAG [G29C G47A]  self-cleavage           0.397
18  AACACUGCCAAUGCCGGCCCCAAGCCCGGAUAAAAGUGGAGGCGGCGG [U18C G43C]  self-cleavage           0.121
19  CACUCUGCCAAUGCCGGUCCCAAGCCCGGAUAAAAGUGGAGGGGGCGG [A1C A4U]  self-cleavage           0.116
20  AACACUGCCAAUGCCGGUCCCAAGCCCGGAUAAAAGUGAAGGGGGAGG [G39A C46A]  self-cleavage           0.463
21  AACACUGCCAUUGCAGGUCCCAAGCCCGGAUAAAAGUGGAGGGGGCGG [A11U C15A]  self-cleavage            0.62
22  AGCACUGCCAAUGCCGGACCCAAGCCCGGAUAAAAGUGGAGGGGGCGG [A2G U18A]  self-cleavage           0.123
23  AACACUGCCAAGGCCGGUCCCAAGCCCGGAUAAAAGUGGAGUGGGCGG [U12G G42U]  self-cleavage           0.531
24  AACACUGCCAAUGCCGGUCCCAAGGCCGCAUAAAAGUGGAGGGGGCGG [C25G G29C]  self-cleavage           0.109
25  AACACUGCCAAUGCCGGUCCCAAGCCCGGUUAAAAAUGGAGGGGGCGG [A30U G36A]  self-cleavage           0.762
26  AACACUGCCAAUGCCGGUCCCAACCCCGGAUAAAAGUCGAGGGGGCGG [G24C G38C]  self-cleavage           0.144
27  AACACUGCCAAUGCCGGUCCCAAGACCGGAUAAAAGCGGAGGGGGCGG [C25A U37C]  self-cleavage          0.0999
28  AUCAUUGCCAAUGCCGGUCCCAAGCCCGGAUAAAAGUGGAGGGGGCGG [A2U C5U]  self-cleavage           0.448
29  AACACUGCCAAUGCCGGUCCCUAGCCCGGAUAAAAGUGGAGGGGGAGG [A22U C46A]  self-cleavage           0.764
30  AACACUGCCAAUGCCGGUCCCAAGCCCGGAUAAAUGUGGACGGGGCGG [A35U G41C]  self-cleavage           0.206
31  AACACUGCCAAUGCCGGUCCCAAGCCCGGAUAAAAGGGGAGCGGGCGG [U37G G42C]  self-cleavage           0.103
32  AACACCGCCAAUGCCGGUCGCAAGCCCGGAUAAAAGUGGAGGGGGCGG [U6C C20G]  self-cleavage          0.0668
33  AACACUGCCCAUGCCGGUCCCAAGCCCGGAAAAAAGUGGAGGGGGCGG [A10C U31A]  self-cleavage           0.776
34  AACAUUGCCAAUGCCGGUCCCAAGCCCGGAUAAAAGUUGAGGGGGCGG [C5U G38U]  self-cleavage           0.503
35  AACGCUGCCAAUGCCGGUCCCAAGCCCGGAUAAAAGCGGAGGGGGCGG [A4G U37C]  self-cleavage            0.99
36  AACACUGCCAAUGCCGGUCCCAAGCCCGGGUAAAAGUGGAGGUGGCGG [A30G G43U]  self-cleavage           0.498
37  AACACUGCCAAAGCGGGUCCCAAGCCCGGAUAAAAGUGGAGGGGGCGG [U12A C15G]  self-cleavage            0.17
38  AACACUGCCAAUGCCGGUCCCAAGCCCUGAUAAAAGUGGAGGCGGCGG [G28U G43C]  self-cleavage           0.151
39  AACACUGCCAAUGCCGGUCCCAAGCCCGGAUGAAAGCGGAGGGGGCGG [A32G U37C]  self-cleavage           0.844
40  AACACUGCCAAUGCCGGUCCCAAGCCCGGAAAAAAGCGGAGGGGGCGG [U31A U37C]  self-cleavage           0.591
41  ACCACUGCCAAUGCCGGUCCCAAGCCCGGAUAAAAGUGGAGGUGGCGG [A2C G43U]  self-cleavage          0.0462
42  AACACUGCCAAUGCCGGUCCCAAGCCCUAAUAAAAGUGGAGGGGGCGG [G28U G29A]  self-cleavage           0.947
